Recorded measurements of Mean fluorescence intensity, one per entry
# measured_target: T1, monkey LAG-3 (full length, on the cell surface) (monkey, UniProt P18627 24-525 (human entry))
# T1 construct: also called HEK293-cLAG-3; monkey LAG-3 protein on the cell surface
# T1 chain: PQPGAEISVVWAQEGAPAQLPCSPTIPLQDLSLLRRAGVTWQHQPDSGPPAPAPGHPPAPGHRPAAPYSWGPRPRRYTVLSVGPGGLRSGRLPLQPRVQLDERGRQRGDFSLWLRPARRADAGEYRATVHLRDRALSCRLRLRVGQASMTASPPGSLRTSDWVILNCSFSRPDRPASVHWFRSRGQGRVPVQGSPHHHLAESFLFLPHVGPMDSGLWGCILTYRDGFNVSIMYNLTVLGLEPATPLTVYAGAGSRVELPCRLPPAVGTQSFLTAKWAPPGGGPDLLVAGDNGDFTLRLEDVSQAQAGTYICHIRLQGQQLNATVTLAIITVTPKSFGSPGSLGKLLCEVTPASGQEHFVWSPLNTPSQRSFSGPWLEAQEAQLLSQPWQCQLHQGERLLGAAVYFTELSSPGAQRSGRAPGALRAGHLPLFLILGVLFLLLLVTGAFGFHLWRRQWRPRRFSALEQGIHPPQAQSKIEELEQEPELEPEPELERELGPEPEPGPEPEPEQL
# protocol_description: FACS, HEK293-cLAG-3; 0.064 nM
# Experimental: The pIRES plasmid with the monkey-derived full-length gene was transfected into the HEK293 cell line to construct a HEK293 stable cell line containing monkey LAG-3 (herein referred to as HEK293-cLAG-3 stable cell line). […] After counted, the cells were diluted with HBSS to 1-2×10⁶ cells per ml, added with 1% goat serum blocking solution, incubated on ice for 20-30 minutes, and then washed with HBSS for 2 times by centrifugation. […]

{"binder": "556F6B8 (mouse antibody purified from hybridoma) (antibody, V domains shown, also called mAb123-556F6B8) VH: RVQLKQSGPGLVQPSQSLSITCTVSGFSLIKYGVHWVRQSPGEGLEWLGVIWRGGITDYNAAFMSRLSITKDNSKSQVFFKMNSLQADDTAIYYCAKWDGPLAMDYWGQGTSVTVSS VL: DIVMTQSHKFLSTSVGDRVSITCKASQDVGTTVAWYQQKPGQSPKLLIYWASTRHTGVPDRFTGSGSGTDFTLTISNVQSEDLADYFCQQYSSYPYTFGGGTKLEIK", "unit_abbrev": "MFI", "Mean fluorescence intensity": 5.1}
{"binder": "105F1E10 (mouse antibody purified from hybridoma) (antibody, V domains shown, also called mAb009-105F1E10) VH: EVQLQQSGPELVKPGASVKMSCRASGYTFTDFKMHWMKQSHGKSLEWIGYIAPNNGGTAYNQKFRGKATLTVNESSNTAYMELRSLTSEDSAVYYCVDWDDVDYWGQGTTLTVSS VL: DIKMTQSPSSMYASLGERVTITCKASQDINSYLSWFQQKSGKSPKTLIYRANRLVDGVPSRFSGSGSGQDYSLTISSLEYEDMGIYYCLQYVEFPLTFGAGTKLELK", "unit_abbrev": "MFI", "Mean fluorescence intensity": 4.5}
